# System: MDA-MB-468 breast
# Measurement Notes: NCI-60 one-dose screen, 48 h
# Experimental Conditions: 10 µM unless noted
Compounds without any hit were thinned out: in the full panel of roughly 83,000, 20% have a hit. Calls of active or inactive are those of the source. The calls were made as follows: active = growth percent below 10; inactive = the rest.
Can you answer with just one of these options? active, inactive

Tell me the recorded outcome of this test for `Cc1cnc(-c2ccc(-c3ccc(NC(=O)Nc4c(F)cc(F)cc4F)cc3F)c3c2C(=O)NC3)[nH]1` .
inactive

Tell me the recorded outcome of this test for COc1cc2c(cc1OC)C1CCN3C(=O)CCC3N1CC2 (stereo not given) .
inactive

Tell me the recorded outcome of this test for CCNC(=O)N1CCc2cc(OC)c(OCCc3ccc(OC)cc3)cc2C1c1ccc([N+](=O)[O-])cc1C (stereo not given) .
active

Tell me the recorded outcome of this test for `CCCCC[C@H](O)C/C=C1/C(=O)C=C[C@@H]1C/C=C\CCCC(=O)O` .
inactive

Tell me the recorded outcome of this test for `COc1ccc(OC)c(NC2=C(SCCc3ccccc3)C(=O)c3ccccc3C2=O)c1` .
inactive

Each recorded value in this set is attributed to PubChem BioAssay (NCI).
